Where do the numbers come from? From patent US20230131899A1.

Provide the recorded remaining activity at 100 µM for the entries that follow.
Target: E. coli CsgA (Escherichia coli, UniProt P28307)
Construct: made in house; host or cells: E. coli NEB 3016 slyD::kan, pET11d
Sequence (P28307 23-151): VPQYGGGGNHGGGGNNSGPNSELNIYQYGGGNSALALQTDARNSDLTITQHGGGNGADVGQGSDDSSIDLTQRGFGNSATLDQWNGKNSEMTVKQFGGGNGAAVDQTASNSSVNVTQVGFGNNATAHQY
Test: In vitro ThioflavinT assay of CsgA aggregation (CsgA ThT Assay)
Format: biochemical
Conditions: read-out: CsgA ThT Assay (2 μM CsgA) % Control Bmax 100 μM, activity range, class symbol; CsgA 2 μM, white plates; compound 100 μM

INSERT INTO assay_data (molecule, endpoint_result) VALUES
  ('O=C(O)[C@H]1CN(Cc2ccccc2)c2c(-c3cccc(C(F)(F)F)c3)c(Cc3cccc4ccccc34)c(Cl)c(=O)n21 (single isomer, unassigned) [Compound 004b]', '31 to 60%'),
  ('O=C(O)C1CN(Cc2ccccn2)c2c(-c3cccc(C(F)(F)F)c3)c(Cc3cccc4ccccc34)c(Cl)c(=O)n21 (stereo not drawn)', '31 to 60%'),
  ('CCCN1CC(C(=O)O)n2c(c(-c3cccc(C(F)(F)F)c3)c(Cc3cccc4ccccc34)c(CC(C)C)c2=O)S1(=O)=O (stereo not drawn)', '31 to 60%'),
  ('CCCN1CC(C(=O)O)n2c(c(-c3cccc(C(F)(F)F)c3)c(C(F)(F)c3cccc4ccccc34)cc2=O)S1(=O)=O (stereo not drawn)', '31 to 60%'),
  ('NC(=O)c1c(Cc2cccc3ccccc23)c(-c2cccc(C(F)(F)F)c2)c2n(c1=O)C(C(=O)O)CN(CCCO)S2(=O)=O (stereo not drawn)', '11 to 31%');

Data request: # input molecule: NC(=O)c1c(Cc2cccc3ccccc23)c(-c2cccc(C(F)(F)F)c2)c2n(c1=O)C(C(=O)O)CN(C1CCCC1)S2(=O)=O (stereo not drawn) ; wanted: its remaining activity at 100 µM
Data returned: 11 to 31%

* * *

Target: E. coli CsgA (Escherichia coli, UniProt P28307)
Construct: made in house; host or cells: E. coli NEB 3016 slyD::kan, pET11d
Assay: In vitro ThioflavinT assay of CsgA aggregation (CsgA ThT Assay)
Assay type: biochemical
Conditions: read-out: CsgA ThT Assay (2 μM CsgA) % Control Bmax 100 μM, activity range, class symbol; CsgA 2 μM, white plates; compound 100 μM
Endpoint: remaining activity at 100 µM

Known results for molecules:
INSERT INTO assay_data (molecule, endpoint_result) VALUES
  ('O=C(O)C1CN(CCCCCO)c2c(-c3cccc(C(F)(F)F)c3)c(Cc3cccc4ccccc34)c(Cl)c(=O)n21 (stereo not shown) [Compound 199]', '> 60%'),
  ('O=C(O)C1CN(Cc2ccccc2)c2c(-c3cccc(C(F)(F)F)c3)c(Cc3cccc4ncccc34)c(Cl)c(=O)n21 (stereo not shown) [Compound 211]', '> 60%'),
  ('O=C(O)C1CN(Cc2ccccc2)c2c(-c3cccc(C(F)(F)F)c3)c(CN3CCCCC3)c(Cl)c(=O)n21 (stereo not shown) [Compound 218]', '> 60%');

Attention now shifts to the item below.
Data request: # input molecule: O=C(O)C1CN(Cc2ccccc2)c2c(-c3cccc(C(F)(F)F)c3)c(Cc3cccc4ccccc34)c(Cl)c(=O)n21 (stereo not shown) [Compound 004] ; wanted: its remaining activity at 100 µM
Data returned: 11 to 31%

* * *

Molecular target: human α-synuclein (Homo sapiens, UniProt P37840)
Construct: the full-length gene for untagged human α-synuclein was inserted; made in house; host or cells: E. coli BL21(DE3), plasmid derived from pT7 or pET11a
Experiment: Cell-free Thioflavin T assay of α-synuclein aggregation (αSyn ThT Assay)
Type: biochemical
Conditions: class symbol; αSyn 50 μM, compounds 100 μM; read-out: αSyn ThT Assay % inhibition, activity range
Endpoint: inhibition at 100 µM

Known results for compounds:
INSERT INTO results (compound, endpoint, endpoint_result) VALUES
  ('CCCN1CC(C(=O)O)n2c(c(-c3cccc(C(F)(F)F)c3)c(Cc3cccc4ccccc34)c(Cl)c2=O)S1(=O)=O (stereo not drawn)', 'inhibition at 100 µM', '31 to 60%'),
  ('O=C(O)C1CN(Cc2ccccc2CO)c2c(-c3cccc(C(F)(F)F)c3)c(Cc3cccc4ccccc34)c(Cl)c(=O)n21 (stereo not drawn)', 'inhibition at 100 µM', '31 to 60%'),
  ('O=C(O)C1CN(CC2CCOCC2)c2c(-c3cccc(C(F)(F)F)c3)c(Cc3cccc4ccccc34)c(Cl)c(=O)n21 (stereo not drawn)', 'inhibition at 100 µM', '31 to 60%');

Would you mind listing inhibition at 100 µM for each of the following compounds?
1. CN1CC(C(=O)O)n2c(c(-c3cccc(C(F)(F)F)c3)c(Cc3cccc4ccccc34)c(C(=O)N3CCOCC3)c2=O)S1(=O)=O (stereo not drawn)
2. O=C(O)C1CN(CCC2CCCCC2)c2c(-c3cccc(C(F)(F)F)c3)c(Cc3cccc4ccccc34)c(Cl)c(=O)n21 (stereo not drawn)
3. CC(C)N1CC(C(=O)O)n2c1c(-c1cccc(C(F)(F)F)c1)c(Cc1cccc3ccccc13)c(Cl)c2=O (stereo not drawn)

Data returned:
11 to 30%
> 60%
> 60%

* * *

Biological target: human α-synuclein (Homo sapiens, UniProt P37840)
Construct: the full-length gene for untagged human α-synuclein was inserted; made in house; host or cells: E. coli BL21(DE3), plasmid derived from pT7 or pET11a
Test: Cell-free Thioflavin T assay of α-synuclein aggregation (αSyn ThT Assay)
Assay type: biochemical
Settings: mean % inhibition of αSyn aggregation relative to DMSO control; αSyn 50 μM; compounds at 100 μM; read-out: αSyn ThT Assay % Inhibition
Endpoint: inhibition at 100 µM
State the value with its unit after it.

Known results for compounds:
INSERT INTO results (compound, measured_target, endpoint, endpoint_result) VALUES
  ('CN(C)CCN1CC(C(=O)O)n2c(c(-c3cccc(C(F)(F)F)c3)c(Cc3cccc4ccccc34)cc2=O)S1(=O)=O (stereo not shown)', 'human α-synuclein (Homo sapiens, UniProt P37840)', 'inhibition at 100 µM', '53%'),
  ('O=C(O)C1CSc2c(-c3cccc(C(F)(F)F)c3)c(Cc3cccc4ccccc34)cc(=O)n21 (single isomer, unassigned) [Compound 011a]', 'human α-synuclein (Homo sapiens, UniProt P37840)', 'inhibition at 100 µM', '13%');

Would you mind listing inhibition at 100 µM for each of the following compounds?
1. O=C(O)C1CNS(=O)(=O)c2c(-c3cccc(C(F)(F)F)c3)c(Cc3cccc4ccccc34)cc(=O)n21 (racemic)
2. O=C(O)C1CSc2c(-c3cccc(C(F)(F)F)c3)c(Cc3cccc4ccccc34)nc(=O)n21 (stereo not shown)

Data returned:
28%
49%

* * *

Target: E. coli CsgA (Escherichia coli, UniProt P28307)
Construct: made in house; host or cells: E. coli NEB 3016 slyD::kan, pET11d
Experiment: In vitro ThioflavinT assay of CsgA aggregation (CsgA ThT Assay)
Type: biochemical
Settings: read-out: CsgA ThT Assay (2 μM CsgA) % Control Bmax 25 μM, mean Bmax as percentage of DMSO control; CsgA 2 μM, white plates; compound 25 μM
Endpoint: remaining activity at 25 µM (%)
One number for each entry, in %.

Known results for molecules:
INSERT INTO results (molecule, endpoint, endpoint_result) VALUES
  ('CCCN1CC(C(=O)O)n2c(c(-c3cccc(C(F)(F)F)c3)c(C(F)(F)c3cccc4ccccc34)cc2=O)S1(=O)=O (stereo not shown) [Compound 138]', 'remaining activity at 25 µM', 73),
  ('N#Cc1c(Cc2cccc3ccccc23)c(-c2cccc(C(F)(F)F)c2)c2n(c1=O)C(C(=O)O)CN2Cc1ccccc1 (stereo not shown) [Compound 185]', 'remaining activity at 25 µM', 69);

Would you mind listing remaining activity at 25 µM for each of the following molecules?
1. O=C(O)C1CN(Cc2ccc(-c3ccccc3)cc2)c2c(-c3cccc(C(F)(F)F)c3)c(Cc3cccc4ccccc34)c(Cl)c(=O)n21 (stereo not shown) [Compound 202]
2. NC(=O)c1c(Cc2cccc3ccccc23)c(-c2cccc(C(F)(F)F)c2)c2n(c1=O)C(C(=O)O)CN(CCCO)S2(=O)=O (stereo not shown) [Compound 184]
3. CCCOc1c(Cc2cccc3ccccc23)c(-c2cccc(C(F)(F)F)c2)c2n(c1=O)C(C(=O)O)CN(CCC)S2(=O)=O (stereo not shown) [Compound 147]
4. O=C(O)C1CN(Cc2ccccc2)c2c(-c3cccc(C(F)(F)F)c3)c(C(F)(F)c3cccc4ccccc34)c(Br)c(=O)n21 (stereo not shown) [Compound 155]
5. O=C(O)C1CNS(=O)(=O)c2c(-c3cccc(C(F)(F)F)c3)c(C(F)(F)c3cccc4ccccc34)cc(=O)n21 (stereo not shown) [Compound 137]
6. CCc1c(Cc2cccc3ccccc23)c(-c2cccc(C(F)(F)F)c2)c2n(c1=O)C(C(=O)O)CN2C (stereo not shown) [Compound 136]
7. O=C(O)C1CN(Cc2ccccc2)c2c(-c3cccc(C(F)(F)F)c3)c(CN3CCCc4ccccc43)c(Cl)c(=O)n21 (stereo not shown) [Compound 217]

Data returned:
1. 51
2. 45
3. 101
4. 57
5. 81
6. 77
7. 65

Would you mind listing remaining activity at 25 µM for each of the following molecules?
1. O=C(O)C1CN(CCCCCCN2CC(C(=O)O)n3c2c(-c2cccc(C(F)(F)F)c2)c(Cc2cccc4ccccc24)c(Cl)c3=O)c2c(-c3cccc(C(F)(F)F)c3)c(Cc3cccc4ccccc34)c(Cl)c(=O)n21 (stereo not shown) [Compound 193]
2. O=C(O)C1CN(Cc2ccccc2CO)c2c(-c3cccc(C(F)(F)F)c3)c(Cc3cccc4ccccc34)c(Cl)c(=O)n21 (stereo not shown) [Compound 181]
3. CC(C)NC(=O)c1c(Cc2cccc3ccccc23)c(-c2cccc(C(F)(F)F)c2)c2n(c1=O)C(C(=O)O)CN(C)S2(=O)=O (stereo not shown) [Compound 157]
4. O=C(O)C1CN(C2CCCCC2)S(=O)(=O)c2c(-c3cccc(C(F)(F)F)c3)c(Cc3cccc4ccccc34)c(NC3CCCC3)c(=O)n21 (stereo not shown) [Compound 131]

Data returned:
53
57
81
53
